# assay.target: von Willebrand factor (VWF) (Homo sapiens, UniProt P04275 P04275:764-2813)
# test.description: filter; Bmax 25%; 2 mM CaCl2, 37 C
# cond: tags: factor VIII free, Haematologic Technologies Inc; label: 5'-32P
measurement.type: pKd
Reminder that pKd is minus the log10 of a molar concentration.

Which pKd value is on record for ACGAACUGCCCUCAGCUACUUUCAUGUUGCUGACGCACAGACGU (ssRNA, rAfCrGrArAfCfUrGfCfCfCfUfCrArGfCfUrAfCfUfUfUfCrAfUrGfUfUrGfCfUrGrAmCrGfCrAfCrArGrAfCrGfU-idT) [T25 vrt24] ? 7.26
